# testDetails: Toxicity studies in mice
# Type: in vivo
# Design: unit not given here
# cond: Table 12; male Balb-C mice
Non-standard residues stand in square brackets, D forms with d. Residues, ends and D or L forms follow the SMILES beside them.
Provide the recorded LD50(IP) for the entries that follow.
Answers are plain numbers.

Check out these entries, answers already filled in.
molecule="CC(C)C[C@H]1NC(=O)[C@H](Cc2c[nH]c3ccccc23)NC(=O)[C@@H](CCCCN)NC(=O)[C@H](CCCNC(=N)N)NC(=O)[C@@H](CCCNC(=N)N)NC(=O)[C@H](Cc2c[nH]c3ccccc23)NC(=O)[C@@H](CC(C)C)NC(=O)[C@H](Cc2c[nH]c3ccccc23)NC1=O [SEQ ID NO:18] (cyclo([dR]R[dK]W[dL]W[dL]W))" measurementkind=LD50(IP) readoutvalue=60
molecule="CC(C)C[C@H]1NC(=O)[C@H](CCCCN)NC(=O)[C@@H](CCCCN)NC(=O)[C@H](Cc2c[nH]c3ccccc23)NC(=O)[C@@H](CC(C)C)NC(=O)[C@H](Cc2c[nH]c3ccccc23)NC1=O [SEQ ID NO:26, cyclo-(D-Lys-Lys-D-Leu-Trp-D-Leu-Trp)] (cyclo(K[dL]W[dL]W[dK]))" measurementkind=LD50(IP) readoutvalue=75

Continue with the molecule presented below.
INPUT: I would be grateful if you could share the reported LD50(IP) for CC(C)C[C@H]1NC(=O)[C@H](Cc2c[nH]c3ccccc23)NC(=O)[C@@H](CCCNC(=N)N)NC(=O)[C@H](CCC(N)=O)NC(=O)[C@@H](CCCCN)NC(=O)[C@H](Cc2c[nH]c3ccccc23)NC(=O)[C@@H](CC(C)C)NC(=O)[C@H](Cc2c[nH]c3ccccc23)NC1=O [SEQ ID NO:8] (cyclo([dK]Q[dR]W[dL]W[dL]W)) .
OUTPUT: 55
